- Test system: Acinetobacter baumannii
- procedure text: Antimicrobial activity against multidrug-resistant Acinetobacter baumannii ATCC BAA-1605 by tube dilution method
- Assay type: functional
Numbered stars: 1 amine (or outer) side, 2 acyl side, 3 side chain; on linkers, the order of the positions; unused ones are H or OH. Bridge positions count the residues as written; N and C are the ends. Square brackets hold non-standard residues; d marks the D form. Peptide text beside a SMILES is read from it. ξ: configuration not given here. Bip = N[C@@H](Cc1ccc(-c2ccccc2)cc1)C(=O)O; 2Nal = N[C@@H](Cc1ccc2ccccc2c1)C(=O)O; Cha = N[C@@H](CC1CCCCC1)C(=O)O; X1 = NC(CCN[*:2])C(=O)[*:1]; ξDab = NCCC(N)C(=O)O; Ahx = NCCCCCC(=O)O; GABA = NCCCC(=O)O
Record form. Attribute: MIC. Fill in for each entry.
Answers are plain numbers, in µM.

Solved cases (6 shown):
INSERT INTO assay_data (compound, tested_target, measurement_units, recorded_number) VALUES
  ('CC(C)C[C@@H]1NC(=O)C(N)CCNC(=O)C(N)CCNC(=O)[C@H](Cc2ccc3ccccc3c2)NC(=O)[C@H](CCCNC(=N)N)NC(=O)[C@H](CC(C)C)NC(=O)[C@H](Cc2ccc3ccccc3c2)NC(=O)[C@H](CCCNC(=N)N)NC1=O (stereo partly drawn) (H-[ξDab]LR[2Nal]LR[2Nal]; linker 1-C via X1)', 'Acinetobacter baumannii', 'µM', 128),
  ('CC(C)C[C@@H]1NC(=O)CNC(=O)[C@H](Cc2ccc(-c3ccccc3)cc2)NC(=O)[C@H](CCCNC(=N)N)NC(=O)[C@H](CC(C)C)NC(=O)[C@H](Cc2ccc(-c3ccccc3)cc2)NC(=O)[C@H](CCCNC(=N)N)NC1=O (cyclo([Bip]GLR[Bip]LR))', 'Acinetobacter baumannii', 'µM', 32),
  ('CC(C)C[C@@H]1NC(=O)CNC(=O)[C@H](Cc2ccccc2)NC(=O)[C@H](CCCCN)NC(=O)[C@H](CC(C)C)NC(=O)[C@H](Cc2ccccc2)NC(=O)[C@H](CCCCN)NC1=O (cyclo(FGLKFLK))', 'Acinetobacter baumannii', 'µM', 128),
  ('CCCCCCC1NC(=O)[C@@H](Cc2ccc3ccccc3c2)NC(=O)[C@H](CCCNC(=N)N)NC(=O)[C@H](CC(C)C)NC(=O)CNC(=O)[C@H](Cc2ccc3ccccc3c2)NC(=O)[C@H](CCCNC(=N)N)NC1=O (stereo partly drawn)', 'Acinetobacter baumannii', 'µM', 64),
  ('CC(C)C[C@@H]1NC(=O)CCCNC(=O)C(N)CCNC(=O)[C@H](Cc2ccc3ccccc3c2)NC(=O)[C@H](CCCNC(=N)N)NC(=O)[C@H](CC(C)C)NC(=O)[C@H](Cc2ccc3ccccc3c2)NC(=O)[C@H](CCCNC(=N)N)NC1=O (stereo partly drawn) (H-[ξDab][GABA]LR[2Nal]LR[2Nal]; lactam 1-C)', 'Acinetobacter baumannii', 'µM', 32),
  ('CC(C)C[C@@H]1NC(=O)CNC(=O)[C@H](Cc2ccc3ccccc3c2)NC(=O)[C@H](CCCNC(=N)N)NC(=O)[C@H](CC2CCCCC2)NC(=O)[C@H](Cc2ccc3ccccc3c2)NC(=O)[C@H](CCCNC(=N)N)NC1=O (cyclo([2Nal][Cha]R[2Nal]GLR))', 'Acinetobacter baumannii', 'µM', 64);

Fill in MIC for each of the 2 compounds listed.
1. CC(C)C[C@@H]1NC(=O)CNC(=O)[C@@H](Cc2ccc3ccccc3c2)NC(=O)[C@H](CCCNC(=N)N)NC(=O)[C@H](CC(C)C)NC(=O)[C@H](Cc2ccc3ccccc3c2)NC(=O)[C@H](CCCNC(=N)N)NC1=O
2. CC(C)C[C@@H]1NC(=O)CCCCCNC(=O)[C@H](Cc2ccc3ccccc3c2)NC(=O)[C@H](CCCNC(=N)N)NC(=O)[C@H](CC(C)C)NC(=O)[C@H](Cc2ccc3ccccc3c2)NC(=O)[C@H](CCCNC(=N)N)NC1=O (cyclo([2Nal][Ahx]LR[2Nal]LR))

128
64

Cited source: ChEMBL document CHEMBL4000149
